All figures here come from PubChem BioAssay AID1159580.

# experimental.details: chemical genetic growth profiling, strain panel (AID 1159580);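 further: tested at 20 µM; growth read once vehicle control cultures reached saturation at 30 °C; 1 = growth at the plate median or of vehicle wells; lower values mean less growth of the strain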
# run.parameters: S. cerevisiae deletion strains, growth OD, locus YPL055C, strain LGE1, stronger effect = lower value
Out of some 5,500 compounds screened, about 2,000 (36%) were called active. Inconclusive results (about 18%) are left out. The list shows a part of the results.
metric: normalized growth

{"molecule": "O=S(=O)(c1ccc(Cl)cc1)N1CCN(Cc2ccccc2)CC1", "metric": "normalized growth", "recorded.value": 0.972}
{"molecule": "CC(C)N=C(N)N=C(N)Nc1ccc(Cl)cc1", "metric": "normalized growth", "recorded.value": 1.03}
{"molecule": "Nc1ccccc1C(=O)NCCc1ccc(Cl)cc1", "metric": "normalized growth", "recorded.value": 1.08}
{"molecule": "CNC(=O)c1cc2c(cn1)[nH]c1ccccc12", "metric": "normalized growth", "recorded.value": 1.02}
{"molecule": "CC(C)C1CCC(C(=O)N[C@@H](Cc2ccccc2)C(=O)O)CC1 (stereo not given in full)", "metric": "normalized growth", "recorded.value": 0.996}
{"molecule": "O[C@H]1[C@H](O)[C@@H](O)C2OC[C@H]1O2", "metric": "normalized growth", "recorded.value": 0.931}
{"molecule": "Cc1c(NC(C)C)c(=O)n(-c2ccccc2)n1C", "metric": "normalized growth", "recorded.value": 1.01}
{"molecule": "Nc1ccc(Sc2cc(Cl)ccc2Cl)nc1", "metric": "normalized growth", "recorded.value": 0.99}
{"molecule": "COc1ccccc1C1CCN(c2ncnc3scc(-c4ccccc4)c23)CC1", "metric": "normalized growth", "recorded.value": 0.987}
{"molecule": "O=C(/C=C/c1ccccc1)c1ccc(O[C@@H]2O[C@H](CO)[C@@H](O)[C@H](O)[C@H]2O)cc1O", "metric": "normalized growth", "recorded.value": 0.901}
{"molecule": "CNC(=O)Oc1cccc2c1OC(C)(C)C2", "metric": "normalized growth", "recorded.value": 1.03}
{"molecule": "OC[C@H]1O[C@@H](n2cnc3c(NC4CCCCC4)ncnc32)[C@H](O)[C@@H]1O", "metric": "normalized growth", "recorded.value": 0.995}
{"molecule": "Nc1c(Cl)cc(C(=O)Nc2cc(Cl)cc(Cl)c2)cc1Cl", "metric": "normalized growth", "recorded.value": 0.8}
{"molecule": "CC(C)(C)S(=O)(=O)c1cnc(N)nc1N", "metric": "normalized growth", "recorded.value": 0.972}
{"molecule": "CC(C)[C@@H]1CC[C@@H](C)CC1=O", "metric": "normalized growth", "recorded.value": 1.02}
{"molecule": "COc1ccccc1NC(=S)NCCc1ccc(OC)c(OC)c1", "metric": "normalized growth", "recorded.value": 1.03}
{"molecule": "CNC(=O)N(C)c1nnc(C(C)(C)C)s1", "metric": "normalized growth", "recorded.value": 1.03}
{"molecule": "COc1ccccc1N1CC(C)(C)C(=O)N(C(=O)c2c(F)cccc2Cl)C1=S", "metric": "normalized growth", "recorded.value": 0.899}
{"molecule": "COP(=O)(NC(C)=O)SC (stereo not given)", "metric": "normalized growth", "recorded.value": 1.09}
{"molecule": "O=C(/C=C/c1ccccc1)c1c(O)cc(O)cc1O", "metric": "normalized growth", "recorded.value": 1.05}
{"molecule": "Cc1cc2c(cc1C)CSC(C)(c1ccc(F)cc1)SC2", "metric": "normalized growth", "recorded.value": 1}
{"molecule": "COc1cc(O)c2c(c1)C(=O)c1cc(C)cc(O)c1C2=O", "metric": "normalized growth", "recorded.value": 0.999}
{"molecule": "NC(=NCCCCCCN=C(N)N=C(N)Nc1ccc(Cl)cc1)N=C(N)Nc1ccc(Cl)cc1", "metric": "normalized growth", "recorded.value": 0.0688}
{"molecule": "CC(C)NP(=O)(NC(C)C)OP(=O)(NC(C)C)NC(C)C", "metric": "normalized growth", "recorded.value": 1.01}
{"molecule": "O=C(/C=C/c1ccc(O)cc1)c1ccc(O)cc1O", "metric": "normalized growth", "recorded.value": 0.977}
{"molecule": "FC(F)(F)c1cc(-c2ccc(Cl)cc2)nc2cc(C3CC3)nn12", "metric": "normalized growth", "recorded.value": 1.03}
{"molecule": "CC(=O)OCCCCN1C(=O)c2ccccc2C1=O", "metric": "normalized growth", "recorded.value": 1}
{"molecule": "COC(=O)[C@H](NC(=O)c1cc(-c2ccccc2)nc2ccccc12)c1ccccc1", "metric": "normalized growth", "recorded.value": 0.99}
{"molecule": "O=C1C(=O)c2ccccc2C(O)=C1C1CCC(c2ccc(Cl)cc2)CC1 (stereo not given)", "metric": "normalized growth", "recorded.value": 0.996}
{"molecule": "COC1=CC23CCCN2CCc2cc4c(cc2C3C1O)OCO4 (stereo not given)", "metric": "normalized growth", "recorded.value": 0.999}
{"molecule": "CC(=O)OC1CCC2(O)CC1(C)CCC1C2CC1(C)C (stereo not given)", "metric": "normalized growth", "recorded.value": 0.932}
{"molecule": "Cc1c(-c2csc(-c3ccc(Cl)cc3)n2)sc2ccc(Cl)cc12", "metric": "normalized growth", "recorded.value": 0.999}
{"molecule": "CC(=O)Nc1c(I)cc(I)c(C(=O)O)c1I", "metric": "normalized growth", "recorded.value": 1.05}
{"molecule": "OC[C@H]1O[C@@H](Oc2ccc(O)cc2)[C@H](O)[C@@H](O)[C@@H]1O", "metric": "normalized growth", "recorded.value": 1.04}
{"molecule": "CN1CCN(C2=Nc3cc(Cl)ccc3Nc3ccccc32)CC1", "metric": "normalized growth", "recorded.value": 0.93}
{"molecule": "O=C(CSCc1c(Cl)cccc1Cl)NNC(=S)NC1CC2C=CC1C2 (stereo not given)", "metric": "normalized growth", "recorded.value": 0.867}
{"molecule": "Cc1noc(C)c1C(=O)N1CCOCC1", "metric": "normalized growth", "recorded.value": 1}
{"molecule": "CCCn1cnc2c1c(=O)n(CCCCC(C)=O)c(=O)n2C", "metric": "normalized growth", "recorded.value": 1.02}
{"molecule": "COC(=O)C(Cc1c[nH]c2ccccc12)NC(=O)c1c(Cl)cccc1Cl (stereo not given)", "metric": "normalized growth", "recorded.value": 0.988}
{"molecule": "NC(=O)CN1CC(O)CC1=O (stereo not given)", "metric": "normalized growth", "recorded.value": 1.01}
{"molecule": "Cc1ccc(O)c(C(CCN(C(C)C)C(C)C)c2ccccc2)c1 (stereo not given)", "metric": "normalized growth", "recorded.value": 1.01}
{"molecule": "COC(=O)C(O)[C@H]1C(C)(C)[C@@H](OC(C)=O)[C@@H]2CC3=C4CC(=O)O[C@@H](c5ccoc5)[C@]4(C)CCC3[C@@]1(C)C2=O (stereo not given in full)", "metric": "normalized growth", "recorded.value": 1.01}
{"molecule": "CC[C@H]1OC(=O)[C@H](C)[C@@H](O[C@H]2C[C@@](C)(OC)[C@@H](O)[C@H](C)O2)[C@H](C)[C@@H](O[C@@H]2O[C@H](C)C[C@H](N(C)C)[C@H]2O)[C@](C)(O)C[C@@H](C)/C(=N/OCOCCOC)[C@H](C)[C@@H](O)[C@]1(C)O", "metric": "normalized growth", "recorded.value": 0.988}
{"molecule": "Cc1cc(C(F)(F)F)n2nc(-c3ccc(C(C)(C)C)cc3)cc2n1", "metric": "normalized growth", "recorded.value": 1.06}
{"molecule": "O=C(Nc1ccc([N+](=O)[O-])cc1Cl)c1cc(Cl)ccc1O", "metric": "normalized growth", "recorded.value": 0.731}
